- assay_target: HA H1 A/California/07/09 (Influenza A virus (A/California/07/2009(H1N1)), UniProt C3W5X2)
- assay: biochemical
- run_parameters: Competition binding (AlphaLISA), pIC50 H1 A/California/07/09
property: pIC50
Give bare numbers, as −log10 of the molar value.

Some compounds with known pIC50 results, for comparison:
compound | assay_target | pIC50
COC(=O)C(c1ccccc1)N1CCN(C(=O)c2cccc(-c3nc4ccc(OC)cc4s3)c2)CC1 (stereo not shown) | HA H1 A/California/07/09 (Influenza A virus (A/California/07/2009(H1N1)), UniProt C3W5X2) | 7.60
COC(=O)C(c1ccccc1)C1CCN(C(=O)c2cccc(-c3nc4ccc(OC)cc4s3)c2)CC1 (stereo not shown) | HA H1 A/California/07/09 (Influenza A virus (A/California/07/2009(H1N1)), UniProt C3W5X2) | 6.90

Below is a list of compounds. For each, state its recorded pIC50.
1. COC(=O)C(c1ccccc1)N1CCN(C(=O)c2ccc(-c3nc4ccc(OC)cc4s3)o2)CC1 (stereo not shown)
2. O=C(c1cccc(-c2nc3cc(C(F)(F)F)ccc3o2)c1)N1CCN(C(c2ccccc2)c2nnc(C3(O)CNC3)o2)CC1 (stereo not shown)
3. COC(=O)[C@@H](c1ccccc1)N1CCN(C(=O)c2cccc(-c3nc4cc(C(F)(F)F)ccc4o3)c2)[C@@H](CC(N)=O)C1
4. COC(=O)C(c1ccccc1)N1CCN(C(=O)c2cncc(-c3nc4ccc(OC)cc4s3)c2)CC1 (stereo not shown)

Found:
6.50
7.20
7.40
7.00

Summary for this compound, COC(=O)[C@@H](c1ccccc1)N1CCN(C(=O)c2cccc(-c3nc4cc(C(F)(F)F)ccc4o3)c2)CC1 : pIC50 is 7.60

---

Kindly state CC50 for each of the entries shown.
- assay: in vitro
- run_parameters: dog, Cytotoxicity (pCC50) MDCK
Answers are plain numbers, in µM.

compound | result_value
CNC(=O)C(c1ccccc1)N1CCN(C(=O)c2cccc(-c3nc4ccc(OC)cc4s3)c2)CC1 (stereo not shown) | 31.6

Now for another entry.
Documented CC50 of O=C(c1cccc(-c2cc3ccccc3o2)c1)N1CCN(Cc2ccccc2)CC1 : 10

---

Kindly state IC50 for each of the entries shown.
- assay_target: HA H5 A/Vietnam/1203/04 (Influenza A virus (A/Vietnam/1203/2004(H5N1)))
- assay: biochemical
- run_parameters: Competition binding (AlphaLISA), pIC50 H5 A/Vietnam/1203/04
Answers are plain numbers, in nM.

molecule | units_label | IC50
COC(=O)[C@@H](c1ccccc1)N1CCN(C(=O)c2cccc(-c3nc4ccc(OC)cc4s3)c2)CC1 | nM | 200
CNC(=O)c1cnc(-c2cccc(C(=O)N3CCN(C(C(=O)OC)c4ccccc4)CC3)c2)s1 (stereo not drawn) | nM | 2000
COC(=O)[C@H](c1ccccc1)N1CCN(C(=O)c2cccc(-c3nc4cc(C(F)(F)F)ccc4o3)c2)[C@@H](C(N)=O)C1 | nM | 3160

Go through the items and report each one's IC50.
1. COc1ccc2nc(-c3cccc(C(=O)N4CCN([C@@H](c5ccccc5)c5nnc(C)o5)CC4)c3)sc2c1
2. COc1ccc2nc(-c3cccc(C(=O)N4CCN(C(c5ccccc5)c5ccc[nH]c5=O)CC4)c3)sc2c1 (stereo not drawn)
3. COC(=O)C(c1ccncc1)N1CCN(C(=O)c2cccc(-c3nc4ccc(OC)cc4s3)c2)CC1 (stereo not drawn)
4. COC(=O)C(c1ccccc1)N1CCCN(C(=O)c2cccc(-c3nc4ccc(OC)cc4s3)c2)CC1 (stereo not drawn)
5. Cc1nnc(C(c2ccccc2)N2CCN(C(=O)c3cccc(-c4nc5ccncc5o4)c3)CC2)o1 (stereo not drawn)
6. Cc1nnc(C(c2ccccc2)N2CCN(C(=O)c3cc(-c4nc5cc(OC(F)(F)F)ccc5o4)ccn3)CC2)s1 (stereo not drawn)

Found:
[631, 2510, 2510, 15800, 12600, 3980]

---

- System: H1N1 A/New Caledonia/20/99
- assay: microbe, parasite or virus in culture
- Assay type: cell-based, influenza A virus
- run_parameters: Influenza A virus, H1N1, MDCK, 96 h, read-out: Virus neutralization assay (VNA), pEC50 H1N1 A/New Caledonia/20/99 (converted)
property: EC50 (µM)
One number for each entry, in µM.

compound | result_value
COc1ccc2nc(-c3cccc(C(=O)N4CCN(C(C(C)=O)c5ccccc5)CC4)c3)sc2c1 (centres unmarked) [Example 106] | 1
COC(=O)C(c1ccccc1)N1CCN(C(=O)c2cccc(-c3nc4ccc(OC)cc4s3)n2)CC1 (centres unmarked) [Example 78] | 0.631

List the reported EC50 of each compound below.
1. COC(=O)C(c1ccccc1)N1CCN(C(=O)c2cccc(-c3nc4ccccc4o3)c2)CC1 (centres unmarked) [Example 31]
2. COCC(c1ccccc1)N1CCN(C(=O)c2cccc(-c3nc4ccc(OC)cc4s3)c2)CC1 (centres unmarked) [Example 99]
3. COC(=O)C(c1ccccc1)N1CCCN(C(=O)c2cccc(-c3nc4ccc(OC)cc4s3)c2)CC1 (centres unmarked) [Example 132]
4. Cc1nnc([C@@H](c2ccccc2)N2CCN(C(=O)c3cccc(-c4cnc5ccccc5c4)c3)CC2)o1 [Example 76]
5. Cc1nnc(C(c2ccccc2)N2CCN(C(=O)c3cc(-c4nc5cc(C(F)(F)F)ccc5o4)ccn3)CC2)o1 (centres unmarked) [Example 40]
6. COc1ccc2nc(-c3cccc(C(=O)N4CCN(C(c5ccccc5)c5ccc[nH]c5=O)CC4)c3)sc2c1 (centres unmarked) [Example 91]

Found:
0.158
1
2.51
0.631
0.251
0.794

---

- Tested on: H1N1 A/New Caledonia/20/99
- assay: microbe, parasite or virus in culture
- Assay type: cell-based, influenza A virus
- run_parameters: Influenza A virus, H1N1, MDCK, 96 h, read-out: Virus neutralization assay (VNA), pEC50 H1N1 A/New Caledonia/20/99 (converted)
Please note: EC50 exactly at 1 µM is n. Only values below 1 µM get y.

Would you please look over these solved cases?
molecule | label_class
COc1ccc2nc(-c3cccc(C(=O)N4CCN(C(c5ccccc5)c5nncs5)CC4)c3)sc2c1 (stereo not shown) | y
COc1ccc2nc(-c3cccc(C(=O)N4CCN(C5(c6ccccc6)CCN(C)C5=O)CC4)c3)sc2c1 (stereo not shown) | n

Lookup: is_below(EC50, 1 µM) for Cc1coc(C(c2ccccc2)N2CCN(C(=O)c3cc(-c4nc5cc(OC(F)(F)F)ccc5o4)ccn3)CC2)n1 (stereo not shown) ?
Found: y

Lookup: Does the reported EC50 of the following molecule sit strictly below 1 µM? CNC(=O)N(Cc1ccccc1)C1CCN(C(=O)c2cccc(-c3nc4ccc(OC)cc4s3)c2)CC1
Found: n

Lookup: Lab note: confirm whether the reported EC50 for this molecule is below 1 µM, equality not counting. molecule: COC(=O)C(c1ccccc1)N1CCN(C(=O)c2cccc(NC(=O)c3ccc(OC)cc3)c2)CC1 (stereo not shown)
Found: y

---

- Test system: H1N1 A/New Caledonia/20/99
- assay: microbe, parasite or virus in culture
- Assay type: cell-based, influenza A virus
- run_parameters: Influenza A virus, H1N1, MDCK, 96 h, read-out: Virus neutralization assay (VNA), pEC50 H1N1 A/New Caledonia/20/99 (converted)
Grouping key: EC50. Bins: low end (below 300 nM), middle (300 nM to below 600 nM), high end (600 nM or more)

Consider the worked cases shown below.
compound | label_class
CNc1ccc2oc(-c3cccc(C(=O)N4CCN(C(C(=O)OC)c5ccccc5)CC4)c3)nc2c1 (stereo not shown) [Example 9] | low end
Cc1nnc(C(c2ccccc2)N2CCN(C(=O)c3cc(-c4nc5ccccc5o4)ccc3F)CC2)o1 (stereo not shown) [Example 52] | middle
O=C(c1cc(-c2nc3cc(C(F)(F)F)ccc3o2)ccn1)N1CCN(C(c2ccccc2)c2nnc(C3CC3)o2)CC1 (stereo not shown) [Example 34] | low end

Consider now this further compound.
Lookup: Looking at O=C(c1cccc(-c2nc3cc(C(F)(F)F)ccc3o2)c1)N1CCN(C(c2ccccc2)c2nnc(C3(O)CCC3)o2)CC1 (stereo not shown) [Example 57] , which class would you pick?
Found: middle

---

Please respond with reported IC50 for every item in the list.
- assay_target: HA H5 A/Vietnam/1203/04 (Influenza A virus (A/Vietnam/1203/2004(H5N1)))
- assay: biochemical
- run_parameters: Competition binding (AlphaLISA), pIC50 H5 A/Vietnam/1203/04
Answers are plain numbers, in nM.

// worked examples, IC50 included
compound | assay_target | property | result_value
Cc1nnc([C@@H](c2ccccc2)N2CCN(C(=O)c3cccc(-c4cc5ccccc5cn4)c3)CC2)o1 | HA H5 A/Vietnam/1203/04 (Influenza A virus (A/Vietnam/1203/2004(H5N1))) | IC50 | 5010
CC(=O)Nc1ccc2oc(-c3ccnc(C(=O)N4CCN([C@H](c5ccccc5)c5nnc(C)o5)CC4)c3)nc2c1 | HA H5 A/Vietnam/1203/04 (Influenza A virus (A/Vietnam/1203/2004(H5N1))) | IC50 | 158
COC(=O)C(c1ccccc1)N1CCN(C(=O)c2cccc(-c3nc4ccc(OC)cc4s3)c2)CC1 (stereo not shown) | HA H5 A/Vietnam/1203/04 (Influenza A virus (A/Vietnam/1203/2004(H5N1))) | IC50 | 251

So for COC(=O)C(c1ccccc1)N1CCN(C(=O)c2cccc(-c3nc4cc(O)ccc4o3)c2)CC1 (stereo not shown) , the logged IC50 turned out to be 631
